Numbers sourced from paper PMC10046769.

Molecular target: pig odorant-binding protein (pOBP) (Sus scrofa)
Construct: recombinant pOBP, GST tag removed by thrombin; monomer of 157 amino acids
Sequence (P81245 whole entry): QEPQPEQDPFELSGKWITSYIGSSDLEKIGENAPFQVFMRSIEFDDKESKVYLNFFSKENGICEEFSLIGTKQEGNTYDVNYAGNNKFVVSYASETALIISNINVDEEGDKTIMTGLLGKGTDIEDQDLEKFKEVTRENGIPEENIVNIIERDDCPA
Test: competitive FRET displacement of 1-AMA; also impedance (EIS) with immobilised pOBP
experimental_endpoint: pKd
Please keep in mind that pKd is minus log10 of the molar concentration; only the number is needed.

Form field pKd, entry C=CC(O)CCCCC (stereo not shown) : 1.73
